- Measurement Notes: Static storage stability at elevated temperature/humidity (XRPD, HPLC)
- Format: physicochemical
- Applied Conditions: 25° C./97% RH, 1 week
List of HPLC purity after static storage values.
Supply the numeric figure in %, leaving out any unit text.

O=C(NO)c1cnc(N2C[C@@H]3[C@H](C2)[C@H]3NCc2ccc3cc(F)ccc3n2)nc1 [Mesylate Form 5] : 99.5
O=C(NO)c1cnc(N2C[C@@H]3[C@H](C2)[C@H]3NCc2ccc3cc(F)ccc3n2)nc1 [Mesylate Form 3] : 96.6

Incoming: Suppose we examine the molecule O=C(NO)c1cnc(N2C[C@@H]3[C@H](C2)[C@H]3NCc2ccc3cc(F)ccc3n2)nc1 [Mesylate Form 4] ; what HPLC purity after static storage value has been reported?
Outgoing: 99.5

====

- Measurement Notes: Thermodynamic aqueous solubility
- Type: physicochemical
- Applied Conditions: thermodynamic from solid; deionized water, 25° C., 24 hours; maximum final concentration 40 mg/ml of parent free-form
Value Type: solubility at 24 h

O=C(NO)c1cnc(N2C[C@@H]3[C@H](C2)[C@H]3NCc2ccc3cc(F)ccc3n2)nc1 [Mesylate Form 1] : 40 mg/mL

Incoming: Which solubility at 24 h is reported for this molecule? O=C(NO)c1cnc(N2C[C@@H]3[C@H](C2)[C@H]3NCc2ccc3cc(F)ccc3n2)nc1 [Free Base Form A]
Outgoing: 0.001 mg/mL

====

- Measurement Notes: Static storage stability at elevated temperature/humidity (XRPD, HPLC)
- Assay type: physicochemical
- Applied Conditions: 40° C./75% RH, 1 week
List of HPLC purity after static storage values.
The reply should be a number in %, with the unit left off.

Answered examples (2):
O=C(NO)c1cnc(N2C[C@@H]3[C@H](C2)[C@H]3NCc2ccc3cc(F)ccc3n2)nc1 [Mesylate Form 3] : 97.0
O=C(NO)c1cnc(N2C[C@@H]3[C@H](C2)[C@H]3NCc2ccc3cc(F)ccc3n2)nc1 [Mesylate Form 4] : 99.4

Here's the next entry for you.
Incoming: Field request: HPLC purity after static storage | item: O=C(NO)c1cnc(N2C[C@@H]3[C@H](C2)[C@H]3NCc2ccc3cc(F)ccc3n2)nc1 [Mesylate Form 5]
Outgoing: 99.5
